The measured values listed here are drawn from patent US20160237067A1.

- study.system: human factor XIa (Homo sapiens)
pIC50: −log10 of the molar value. Where a name gives a salt, the structure may show the parent alone.
observation.type: pIC50

stdin: pIC50 lookup needed for Cc1ccc(C(=O)N[C@H]2CC[C@H](O)CC2)cc1-c1ccc(C[C@H](NC(=O)[C@H]2CC[C@H](CN)CC2)C(=O)Nc2ccc(-c3nn[nH]n3)cc2)cc1 [Example 32, hydrochloride] , thanks.
stdout: 8.33

stdin: Find the recorded pIC50 belonging to Cc1ccc(-c2ccc(C[C@H](NC(=O)[C@H]3CC[C@H](CN)CC3)C(=O)Nc3ccc(-c4nn[nH]n4)cc3)cc2)cc1NC(=O)C1CCNCC1 [Example 22, hydrochloride] and report it.
stdout: 7.60

stdin: Given the compound COc1ccc(-c2ccc(C[C@H](NC(=O)[C@H]3CC[C@H](CN)CC3)C(=O)Nc3ccc(-c4nc(C(F)(F)C(F)(F)C(=O)O)n[nH]4)cc3)cc2)cc1S(=O)(=O)N1CCOCC1 [Example 44, hydrochloride] , what is its reported pIC50?
stdout: 8.66

A. Cc1ccc(S(=O)(=O)N2CCCC2)cc1-c1ccc(C[C@H](NC(=O)[C@H]2CC[C@H](CN)CC2)C(=O)Nc2ccc3[nH]c(=O)[nH]c3c2)cc1 [Example 7, hydrochloride]
B. CCOC(=O)c1cccc(-c2ccc(C[C@H](NC(=O)[C@H]3CC[C@H](CN)CC3)C(=O)Nc3ccc(-c4nn[nH]n4)cc3)cc2)c1F [Example 8, hydrochloride]
stdin: Please state the entry with greater pIC50 among A and B . # respond with the chosen item's label
stdout: B
(B: 8.16, A: 7.96)

a. NC[C@H]1CC[C@H](C(=O)N[C@@H](Cc2ccc(-c3cccc(C(=O)NC4CCNCC4)c3F)cc2)C(=O)Nc2ccc(-c3nn[nH]n3)cc2)CC1 [Example 15, hydrochloride]
b. Cc1ccc(S(=O)(=O)N2CCOCC2)cc1-c1ccc(C[C@H](NC(=O)[C@H]2CC[C@H](CN)CC2)C(=O)Nc2ccc(-c3nnn[nH]3)cc2)cc1 [Example 2, hydrochloride]
stdin: Hi team, can someone confirm which has the larger pIC50: a or b ? Thanks. // output: label of the selected item
stdout: b
(b: 10.00, a: 8.00)

1. CCc1ccc(C(=O)NCCN(CC)CC)cc1-c1ccc(C[C@H](NC(=O)[C@H]2CC[C@H](CN)CC2)C(=O)Nc2ccc(-c3nn[nH]n3)cc2)cc1 [Example 23, hydrochloride]
2. COc1ccc(-c2ccc(C[C@H](NC(=O)[C@H]3CC[C@H](CN)CC3)C(=O)Nc3ccc(-c4nnn[nH]4)cc3)cc2)cc1S(=O)(=O)N1CCOCC1 [Example 24, hydrochloride]
stdin: Between 1 and 2 , which one shows the smaller pIC50 number? // caller expects the label of the chosen entry
stdout: 1
(1: 7.89, 2: 8.70)

* * *

Counter-ions that a name gives are not always drawn.
IC50 values recorded for human factor XIa (Homo sapiens, UniProt P03951)
observation.type: IC50 (nM)

stdin: Please provide the recorded IC50 for Cc1ccc(C(=O)NC2CCN(C)CC2)cc1-c1ccc(C[C@H](NC(=O)[C@H]2CC[C@H](CN)CC2)C(=O)Nc2ccc(-c3nc(C(F)(F)C(F)(F)C(=O)O)n[nH]3)cc2)cc1 [Example 42, hydrochloride] , tested on human factor XIa (Homo sapiens, UniProt P03951).
Sequence (P03951 388-625 limits assumed): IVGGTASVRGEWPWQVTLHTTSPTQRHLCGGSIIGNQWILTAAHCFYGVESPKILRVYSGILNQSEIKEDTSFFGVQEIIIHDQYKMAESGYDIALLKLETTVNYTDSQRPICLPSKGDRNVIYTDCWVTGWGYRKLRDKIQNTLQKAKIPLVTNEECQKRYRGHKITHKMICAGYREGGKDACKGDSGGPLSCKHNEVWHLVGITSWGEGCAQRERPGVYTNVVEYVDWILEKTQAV
Sequence (P03951 19-387 partner limits assumed): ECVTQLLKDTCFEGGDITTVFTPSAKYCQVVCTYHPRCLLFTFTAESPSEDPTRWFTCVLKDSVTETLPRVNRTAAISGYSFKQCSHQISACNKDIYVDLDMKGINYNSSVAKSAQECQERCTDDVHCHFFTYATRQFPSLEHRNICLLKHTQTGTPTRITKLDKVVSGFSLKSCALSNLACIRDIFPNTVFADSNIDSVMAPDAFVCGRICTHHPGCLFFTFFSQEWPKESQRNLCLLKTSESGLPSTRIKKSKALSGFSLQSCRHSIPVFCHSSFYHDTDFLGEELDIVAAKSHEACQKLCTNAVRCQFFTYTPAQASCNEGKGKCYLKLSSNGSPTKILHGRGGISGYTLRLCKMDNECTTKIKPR
stdout: 6.8

a. NC[C@H]1CC[C@H](C(=O)N[C@@H](Cc2ccc(-c3cccc(C(=O)N[C@@H]4CCNC4)c3F)cc2)C(=O)Nc2ccc(-c3nn[nH]n3)cc2)CC1 [Example 17, hydrochloride]
b. Cc1ccc(S(=O)(=O)N(C)C)cc1-c1ccc(C[C@H](NC(=O)[C@H]2CC[C@H](CN)CC2)C(=O)Nc2ccc3[nH]c(=O)[nH]c3c2)cc1 [Example 25, hydrochloride]
stdin: Compare a and b and name the one whose reported IC50 is smaller. Lab log: write the label of the selected item as the result.
stdout: b
(b: 6.1 nM, a: 9.3 nM)

P. Cc1ccc(N(C)C)cc1-c1ccc(C[C@H](NC(=O)[C@H]2CC[C@H](CN)CC2)C(=O)Nc2ccc(-c3nnn[nH]3)cc2)cc1 [Example 28, hydrochloride]
Q. NC[C@H]1CC[C@H](C(=O)N[C@@H](Cc2ccc(-c3cccc(C(=O)N4CCNCC4)c3F)cc2)C(=O)Nc2ccc(-c3nn[nH]n3)cc2)CC1 [Example 18, hydrochloride]
R. Cc1c(F)cc(C(=O)NC2CCNCC2)cc1-c1ccc(C[C@H](NC(=O)[C@H]2CC[C@H](CN)CC2)C(=O)Nc2ccc(-c3nn[nH]n3)cc2)cc1 [Example 31, hydrochloride]
S. Cc1ccc(C#N)cc1-c1ccc(C[C@H](NC(=O)[C@H]2CC[C@H](CN)CC2)C(=O)Nc2ccc(-c3nn[nH]n3)cc2)cc1 [Example 21, hydrochloride]
stdin: Arrange these compounds by their IC50, starting with the largest number. In your reply, arrange the labels in the requested order.
stdout: Q, S, R, P

P. Cc1ccc(C(=O)N2CCNCC2)cc1-c1ccc(C[C@H](NC(=O)[C@H]2CC[C@H](CN)CC2)C(=O)Nc2ccc(-c3nn[nH]n3)cc2)cc1 [Example 12, hydrochloride]
Q. Cc1ccc(C(=O)NC2CCNC(=O)C2)cc1-c1ccc(C[C@H](NC(=O)[C@H]2CC[C@H](CN)CC2)C(=O)Nc2ccc(-c3nn[nH]n3)cc2)cc1 (stereo partly drawn) [Example 36, hydrochloride]
stdin: Parameter check: reported IC50 is higher for which label, P or Q ? // caller expects the label of the chosen entry
stdout: P
(P: 8.1 nM, Q: 1.9 nM)
